Ref: paper PMC7822874

# System: HepG2
# Setup Conditions: human, hepg2 cells, 48 h
Observed Property: Log AC50 (M)

{"Compound": "CCCCC(=O)NC(c1ccccc1OC)c1ccc2cccnc2c1O (stereo not shown)", "Assayed System": "HepG2", "Result": "-4.7643 M"}
{"Compound": "Oc1cc(NCc2ccccc2)cc2cccnc12", "Assayed System": "HepG2", "Result": "-4.3643 M"}
{"Compound": "CCN(CC)CCNc1ccnc2cc(Cl)ccc12", "Assayed System": "HepG2", "Result": "-4.5143 M"}
{"Compound": "CCCCCCc1cc2cc(-c3nnc(-c4ccc(C)cc4)o3)c(=O)oc2cc1O", "Assayed System": "HepG2", "Result": "-4.4643 M"}
